// provenance: the Immune Epitope Database (IEDB)

For each entry below, report its IC50 value.
Target Desc: HLA-A*68:02
Protocol Description: IEDB peptide-MHC binding, cellular MHC/competitive/fluorescence; bounds were set here for any values at or beyond the usual limits of such assays
Recorded Conditions: source organism: Hepacivirus hominis
# number only, unit µM dropped from output

Reported IC50 for WMMLLIAQA was 15.8

Reported IC50 for GLLYFILFFV was 23.2

Reported IC50 for RLHGLEAFSL was 18.5

Reported IC50 for LLYFILFFV was 23

Reported IC50 for GLLGCIITSL was 48.9

Reported IC50 for FLLALLSCL was 14

Reported IC50 for VLAGYGAGI was 14.7

Reported IC50 for FMLCLLLLSV was 28.1

Reported IC50 for YVLLLFLLLA was 12

Reported IC50 for ALYGVWPLLL was 20.6

Reported IC50 for YLYGIGSAVV was 5.12

Reported IC50 for RLIVYPDLGV was 6.68

Reported IC50 for TLLGCWSFVL was 26.6

Reported IC50 for LLSTTEWQV was 27.3

Reported IC50 for CLWWTCYMLV was 10.3

Reported IC50 for LLSVGVGIYL was 20.1

Reported IC50 for MLCLLLLSV was 15.4

Reported IC50 for MMMNWSPTT was 17.9

Reported IC50 for RLLDLSSWFT was 11.1

Reported IC50 for LLLLSVGVGI was 52.6
